biological target: human α3β4 (Homo sapiens, UniProt P30926+P32297); construct: host or cells: CHO; experiment: Calcium flux inhibition, CHO-human α3β4 cells; assay type: cell-based
Sequence (P32297 32-505): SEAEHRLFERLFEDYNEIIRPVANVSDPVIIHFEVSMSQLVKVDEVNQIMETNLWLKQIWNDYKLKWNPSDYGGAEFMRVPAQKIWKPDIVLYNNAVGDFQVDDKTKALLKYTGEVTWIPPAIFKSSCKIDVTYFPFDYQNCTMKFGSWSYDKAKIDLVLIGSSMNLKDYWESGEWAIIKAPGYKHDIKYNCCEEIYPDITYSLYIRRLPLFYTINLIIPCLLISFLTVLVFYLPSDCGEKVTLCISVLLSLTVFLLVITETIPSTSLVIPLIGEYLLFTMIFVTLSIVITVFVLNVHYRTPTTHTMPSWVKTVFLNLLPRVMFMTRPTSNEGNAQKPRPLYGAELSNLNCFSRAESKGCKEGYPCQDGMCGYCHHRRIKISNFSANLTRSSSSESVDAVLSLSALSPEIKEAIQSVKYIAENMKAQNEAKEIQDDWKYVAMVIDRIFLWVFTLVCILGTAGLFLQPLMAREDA
Sequence (P30926 22-498): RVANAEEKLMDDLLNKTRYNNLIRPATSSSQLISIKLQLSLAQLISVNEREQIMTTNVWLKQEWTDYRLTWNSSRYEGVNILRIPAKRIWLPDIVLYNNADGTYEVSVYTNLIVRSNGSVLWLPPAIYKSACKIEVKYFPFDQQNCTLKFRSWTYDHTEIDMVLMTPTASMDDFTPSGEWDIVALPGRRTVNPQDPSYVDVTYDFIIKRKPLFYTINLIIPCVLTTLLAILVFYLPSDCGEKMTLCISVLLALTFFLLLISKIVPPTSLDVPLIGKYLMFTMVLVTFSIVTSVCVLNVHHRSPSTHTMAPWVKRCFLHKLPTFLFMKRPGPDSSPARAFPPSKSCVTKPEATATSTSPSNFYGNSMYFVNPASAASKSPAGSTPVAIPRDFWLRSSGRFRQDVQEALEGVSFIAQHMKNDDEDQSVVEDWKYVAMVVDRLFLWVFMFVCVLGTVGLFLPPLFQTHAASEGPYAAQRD
metric name: IC50 (nM)

* CCC12CCCC1(NC)C1CCC2C1 (stereo not drawn) | 220
* CN[C@]12CCC[C@H]1[C@@H]1CC[C@H]2C1 | 490
* CN[C@@]12CCC[C@@H]1[C@H]1CC[C@@H]2C1 | 660
* CCCC12CCCC1(NC)C1CCC2C1 (stereo not drawn) | 130
* CC[C@@]12CCC[C@]1(NC)[C@H]1CC[C@@H]2C1 | 170
* CC[C@]12CCC[C@@]1(NC)[C@@H]1CC[C@H]2C1 | 120

* * *

target: human α4β2 (LS) (Homo sapiens, UniProt P17787+P43681); assay: Calcium flux inhibition, SH-EP1-human α4β2 maintained at 37° C. (LS); type: cell-based; settings: read-out: Human α4β2 Ca Flux Imax [37C/HS]
Sequence (P43681 29-627 limits assumed): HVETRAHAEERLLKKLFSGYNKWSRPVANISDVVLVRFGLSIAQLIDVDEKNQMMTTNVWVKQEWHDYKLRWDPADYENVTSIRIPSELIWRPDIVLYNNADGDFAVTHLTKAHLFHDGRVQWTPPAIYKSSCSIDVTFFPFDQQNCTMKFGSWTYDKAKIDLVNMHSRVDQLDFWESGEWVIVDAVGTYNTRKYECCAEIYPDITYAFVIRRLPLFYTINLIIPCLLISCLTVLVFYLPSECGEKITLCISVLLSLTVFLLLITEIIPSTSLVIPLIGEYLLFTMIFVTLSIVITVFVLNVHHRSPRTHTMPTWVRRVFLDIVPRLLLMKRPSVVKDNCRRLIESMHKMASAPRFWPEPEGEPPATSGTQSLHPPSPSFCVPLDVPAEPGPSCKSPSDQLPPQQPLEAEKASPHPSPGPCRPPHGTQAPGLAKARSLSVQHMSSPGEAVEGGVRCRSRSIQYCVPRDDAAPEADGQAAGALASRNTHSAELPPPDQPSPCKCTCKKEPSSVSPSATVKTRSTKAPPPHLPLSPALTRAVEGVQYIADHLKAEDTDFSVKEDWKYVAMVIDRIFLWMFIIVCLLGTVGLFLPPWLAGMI
Sequence (P17787 26-502): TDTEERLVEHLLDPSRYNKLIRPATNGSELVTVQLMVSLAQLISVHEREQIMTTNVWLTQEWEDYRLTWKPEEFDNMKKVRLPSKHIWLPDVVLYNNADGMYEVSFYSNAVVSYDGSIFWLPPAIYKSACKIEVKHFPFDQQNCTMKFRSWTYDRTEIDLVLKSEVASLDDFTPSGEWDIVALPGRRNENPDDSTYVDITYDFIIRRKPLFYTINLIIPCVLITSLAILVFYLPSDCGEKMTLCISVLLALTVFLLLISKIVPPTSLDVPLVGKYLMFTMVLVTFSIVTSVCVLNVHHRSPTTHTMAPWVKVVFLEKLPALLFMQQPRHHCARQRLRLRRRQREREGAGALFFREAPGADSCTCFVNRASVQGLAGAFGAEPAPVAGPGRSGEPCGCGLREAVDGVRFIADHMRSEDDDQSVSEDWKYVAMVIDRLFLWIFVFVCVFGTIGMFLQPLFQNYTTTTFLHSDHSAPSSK
metric name: Emax (%)

• CCCC12CCCC1(NC)C1CCC2C1 (stereo not drawn) = 96
• CC[C@]12CCC[C@@]1(NC)[C@@H]1CC[C@H]2C1 = 94
• CC[C@@]12CCC[C@]1(NC)[C@H]1CC[C@@H]2C1 = 93
• CCC12CCCC1(NC)C1CCC2C1 (stereo not drawn) = 97
• CC[C@@]12CCC[C@]1(N(C)C)[C@H]1CC[C@@H]2C1 = 98
• CN[C@]12CCC[C@H]1[C@@H]1CC[C@H]2C1 = 96
• CN[C@@]12CCC[C@@H]1[C@H]1CC[C@@H]2C1 = 96
• CC[C@]12CCC[C@@]1(N(C)C)[C@@H]1CC[C@H]2C1 = 99
• CCCCC12CCCC1(NC)C1CCC2C1 (stereo not drawn) = 96

* * *

molecular target: human α4β2 (LS) (Homo sapiens, UniProt P17787+P43681); assay: Calcium flux inhibition, SH-EP1-human α4β2 maintained at 37° C. (LS); format: cell-based; conditions: cells maintained at 37° C., nicotine 10 μM; read-out: Human α4β2 Ca Flux Imax [37C/HS]
Emax values, listed per item
metric name: Emax (%)

• [2H]C([2H])NC12CCCC1(C([2H])([2H])[2H])C1CCC2C1 (stereo not drawn) = 95
• C[N+](C)(C)[C@]12CCC[C@H]1[C@@H]1CC[C@H]2C1 = 100
• C[N+](C)(C)[C@@]12CCC[C@@H]1[C@H]1CC[C@@H]2C1 = 98
• CNC12CCCC1(CO)C1CCC2C1 (stereo not drawn) = 90
• CN(C)[C@]12CCC[C@H]1[C@@H]1CC[C@H]2C1 = 98
• CN(C)[C@@]12CCC[C@@H]1[C@H]1CC[C@@H]2C1 = 98

* * *

pIC50 values, listed per item
molecular target: human α4β2 (HS) (Homo sapiens, UniProt P17787+P43681); test: Calcium flux inhibition, SH-EP1-human α4β2 treated at 29° C. (HS); format: cell-based; conditions: 29° C.-treated cells (HS), nicotine 1 μM; read-out: Human α4β2 Ca Flux IC50 [29C/HS]
Sequence (P43681 29-627 limits assumed): as the sequence (P43681 29-627 limits assumed) above
Sequence (P17787 26-502): as the sequence (P17787 26-502) above
pIC50: −log10 of the molar value.
metric name: pIC50

* CN(C)[C@@]12CCC[C@@H]1[C@H]1CC[C@@H]2C1 | 6.29
* CNC12CCCC1(CO)C1CCC2C1 (stereo not shown) | 6.43
* CCCCC12CCCC1(NC)C1CCC2C1 (stereo not shown) | 6.34
* CN(C)[C@]12CCC[C@H]1[C@@H]1CC[C@H]2C1 | 6.39
